Each recorded value in this set is attributed to patent US20220098240A1.

- study target: T1, human integrin αvβ5 (human, UniProt P06756 31-992; P18084 24-719)
- T1 construct: soluble analyte in SPR at 30, 100, 300 and 1,000 nM in HEPES buffer with 5 mM magnesium chloride; heterodimer of an alpha and a beta chain
- T1 sequence (P06756 31-992, chain 1 of 2): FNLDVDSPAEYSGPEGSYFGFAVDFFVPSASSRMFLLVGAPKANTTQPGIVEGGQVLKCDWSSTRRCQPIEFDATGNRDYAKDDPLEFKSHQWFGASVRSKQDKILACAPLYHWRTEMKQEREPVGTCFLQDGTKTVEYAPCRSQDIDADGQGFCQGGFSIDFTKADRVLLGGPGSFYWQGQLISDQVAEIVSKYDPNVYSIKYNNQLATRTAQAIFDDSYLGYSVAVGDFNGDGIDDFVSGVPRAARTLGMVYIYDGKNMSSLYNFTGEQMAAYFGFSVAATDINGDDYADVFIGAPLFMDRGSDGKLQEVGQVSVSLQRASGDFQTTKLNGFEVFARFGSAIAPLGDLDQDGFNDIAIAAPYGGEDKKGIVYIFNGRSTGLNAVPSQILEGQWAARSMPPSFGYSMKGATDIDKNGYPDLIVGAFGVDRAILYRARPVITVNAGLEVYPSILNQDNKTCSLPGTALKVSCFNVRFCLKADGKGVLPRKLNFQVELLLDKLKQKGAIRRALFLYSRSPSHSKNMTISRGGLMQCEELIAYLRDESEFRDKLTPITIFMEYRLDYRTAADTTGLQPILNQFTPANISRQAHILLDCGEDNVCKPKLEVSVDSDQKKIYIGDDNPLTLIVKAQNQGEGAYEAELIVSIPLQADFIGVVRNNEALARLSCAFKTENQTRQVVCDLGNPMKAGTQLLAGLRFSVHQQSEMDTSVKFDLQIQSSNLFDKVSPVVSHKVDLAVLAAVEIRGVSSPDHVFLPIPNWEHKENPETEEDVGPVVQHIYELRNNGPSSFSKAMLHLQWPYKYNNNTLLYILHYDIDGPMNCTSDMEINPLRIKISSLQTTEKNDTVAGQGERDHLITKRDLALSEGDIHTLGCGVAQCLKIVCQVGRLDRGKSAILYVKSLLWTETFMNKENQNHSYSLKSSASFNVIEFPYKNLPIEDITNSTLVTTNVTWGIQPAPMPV
- T1 sequence (P18084 24-719, chain 2 of 2): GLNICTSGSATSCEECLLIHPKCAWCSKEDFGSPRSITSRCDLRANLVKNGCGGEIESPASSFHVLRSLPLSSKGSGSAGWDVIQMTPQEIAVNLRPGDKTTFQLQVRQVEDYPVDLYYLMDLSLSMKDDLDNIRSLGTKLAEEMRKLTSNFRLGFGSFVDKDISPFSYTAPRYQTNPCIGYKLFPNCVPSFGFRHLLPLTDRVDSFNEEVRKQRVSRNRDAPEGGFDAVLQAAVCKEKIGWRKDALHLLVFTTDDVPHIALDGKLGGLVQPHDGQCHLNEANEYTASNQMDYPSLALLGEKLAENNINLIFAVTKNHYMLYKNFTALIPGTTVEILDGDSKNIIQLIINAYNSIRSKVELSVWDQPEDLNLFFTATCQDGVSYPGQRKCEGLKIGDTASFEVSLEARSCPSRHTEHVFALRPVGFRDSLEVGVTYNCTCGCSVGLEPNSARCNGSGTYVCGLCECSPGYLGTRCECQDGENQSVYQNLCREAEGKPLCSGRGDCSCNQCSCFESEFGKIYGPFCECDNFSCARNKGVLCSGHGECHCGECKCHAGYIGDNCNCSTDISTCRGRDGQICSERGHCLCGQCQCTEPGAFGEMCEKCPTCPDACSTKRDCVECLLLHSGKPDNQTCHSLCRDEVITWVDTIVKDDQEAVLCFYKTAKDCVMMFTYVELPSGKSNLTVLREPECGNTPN
- test description: SPR, Biacore 3000, peptide immobilised on CM5 chip, integrin 30-1000 nM flowed; grade A = dissociation constant 50 nM or less
Bridge positions count the residues as written; N and C are the ends. Square brackets hold non-standard residues; d marks the D form. Ends that are not written are not given here. COCH2 = acetyl group that carries the bridge; Pen = CC(C)(S)[C@H](N)C(=O)O; hCys = N[C@@H](CCS)C(=O)O; Orn = NCCC[C@H](N)C(=O)O; Dab = NCC[C@H](N)C(=O)O
Kindly supply the reported dissociation constant (KD) values for the records listed here.

Value sought for every listed binder: dissociation constant (KD).
1. {CH2CO}-I[hCys]RGDK(COCH2)FCKKK (thioether 2-6 via Ac; thioether N-8; not fully specified, bicyclic; all residues L; immobilised on CM5 chip through amino groups) [Cyclic peptide 17]
2. {CH2CO}-ICRGD[Dab](COCH2)F[hCys]KKK (thioether 2-6 via Ac; thioether N-8; not fully specified, bicyclic; all residues L; immobilised on CM5 chip through amino groups) [Cyclic peptide 20]
3. {CH2CO}-I[Orn](COCH2)RGD[hCys]F[Pen]KKK (thioether 2-6, N-8) [Cyclic peptide 23]

OUT:
["≤ 50 nM", "≤ 50 nM", "< 50 nM"]
